target.under.test: GlcNAc(b1-2)[GlcNAc(b1-6)]Man(a1-6)[GlcNAc(b1-2)Man(a1-3)]Man(b1-4)GlcNAc(b1-4)GlcNAc
procedure.details: glycan array binding signal (z-score within array); higher = stronger binding
conditions.used: glycan notation: IUPAC condensed, linker removed
Many of the other results were omitted from the sample, so the strongest signals are more common in it than they were.

| binder | glycan array binding signal (z-score) |
| --- | --- |
| SfaEH (Escherichia coli), Q1RDG5 (protein) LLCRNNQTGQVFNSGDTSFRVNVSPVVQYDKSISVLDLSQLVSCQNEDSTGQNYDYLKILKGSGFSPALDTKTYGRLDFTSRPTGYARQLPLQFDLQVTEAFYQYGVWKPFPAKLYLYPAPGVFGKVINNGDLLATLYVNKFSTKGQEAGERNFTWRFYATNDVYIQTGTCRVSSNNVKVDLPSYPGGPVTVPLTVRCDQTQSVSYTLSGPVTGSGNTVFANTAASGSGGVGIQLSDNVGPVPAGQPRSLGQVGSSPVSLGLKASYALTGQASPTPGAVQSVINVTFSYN | -0.668 |
| SSR2 (Sclerotium rolfsii) (protein) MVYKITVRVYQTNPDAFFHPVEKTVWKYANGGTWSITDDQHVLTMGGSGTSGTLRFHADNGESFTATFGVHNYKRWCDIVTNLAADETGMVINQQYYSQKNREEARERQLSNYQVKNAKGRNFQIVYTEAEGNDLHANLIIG | 4.32 |
| SSR1 (Sclerotium rolfsii), A0A0M3KL30 (protein) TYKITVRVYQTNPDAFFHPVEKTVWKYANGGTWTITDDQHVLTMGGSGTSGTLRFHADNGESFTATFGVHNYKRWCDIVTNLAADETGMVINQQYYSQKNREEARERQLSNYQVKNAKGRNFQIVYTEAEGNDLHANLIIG | 3.93 |
